# MEASUREMENT_DESCRIPTION: self-splicing fitness, log relative to wild type (ln ratio); higher = more splicing; Tetrahymena group I intron in knt gene, E. coli kanamycin selection, DiMSum; sequences stand for … in CUCUCU…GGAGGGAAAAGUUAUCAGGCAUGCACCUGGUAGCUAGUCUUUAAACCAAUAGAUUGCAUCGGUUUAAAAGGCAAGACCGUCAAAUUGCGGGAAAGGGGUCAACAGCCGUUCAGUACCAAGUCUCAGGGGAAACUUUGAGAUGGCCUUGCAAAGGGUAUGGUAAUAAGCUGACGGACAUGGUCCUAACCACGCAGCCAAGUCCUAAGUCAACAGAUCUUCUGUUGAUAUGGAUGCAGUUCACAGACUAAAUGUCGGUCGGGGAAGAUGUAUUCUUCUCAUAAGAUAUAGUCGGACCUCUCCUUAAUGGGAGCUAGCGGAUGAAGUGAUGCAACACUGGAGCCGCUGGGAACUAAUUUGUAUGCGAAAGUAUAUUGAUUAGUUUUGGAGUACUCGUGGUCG;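 also: selection with 25 µg/mL kanamycin versus none on LB agar overnight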
# TEST_CONTEXT: 30 °C
REPORTED_METRIC: self-splicing fitness (ln)
Give bare numbers.

GAGUAGCAAUAUUACGACGC; -0.488
AAAAAGCAAUAUUACGCAAG; -1.78
CGAAAGCAAUAUUACGCACG; -3.27

For each of the items listed, what is its self-splicing fitness (ln)?
1. CUCCAGCAAUAUUACGGUUG
2. AAAGAGCAAUAUUACGAUAU
3. AUGCAGCAAUAUUACGUAAA
4. GAUUAGCAAUAUUACGAAAU

Response:
1. -2.69
2. -3.17
3. -1.44
4. -2.4

Query: Specify measured self-splicing fitness (ln) for GAUAAGCAAUAUUACGUUGU .
Response: -2.12
